Target: T1, soluble cynomolgus GPNMB (recombinant extracellular domain) (cynomolgus, UniProt Q14956 23-499 (human entry), limits assumed)
T1 chain: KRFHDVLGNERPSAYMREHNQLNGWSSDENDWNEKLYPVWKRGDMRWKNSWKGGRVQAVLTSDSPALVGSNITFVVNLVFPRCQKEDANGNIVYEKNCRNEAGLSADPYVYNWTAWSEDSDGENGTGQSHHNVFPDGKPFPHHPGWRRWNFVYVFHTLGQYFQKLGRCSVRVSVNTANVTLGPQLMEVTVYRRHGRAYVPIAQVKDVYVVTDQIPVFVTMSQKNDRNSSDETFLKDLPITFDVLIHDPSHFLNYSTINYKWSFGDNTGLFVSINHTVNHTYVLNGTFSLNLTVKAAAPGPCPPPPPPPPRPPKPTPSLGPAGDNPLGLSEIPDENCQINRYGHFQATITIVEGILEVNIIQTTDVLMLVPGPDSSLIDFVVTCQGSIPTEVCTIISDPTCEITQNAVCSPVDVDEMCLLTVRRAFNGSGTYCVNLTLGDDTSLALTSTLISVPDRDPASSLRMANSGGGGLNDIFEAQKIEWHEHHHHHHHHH
Assay: SPR Biacore, IgG captured
metric name: kon (M⁻¹ s⁻¹)
Answer format: numeric, M⁻¹ s⁻¹ implied, no suffix.

Some solved cases for reference:
[
  {
    "binder": "anti-GPNMB antibody GPN-93 (antibody, V domains shown) VH: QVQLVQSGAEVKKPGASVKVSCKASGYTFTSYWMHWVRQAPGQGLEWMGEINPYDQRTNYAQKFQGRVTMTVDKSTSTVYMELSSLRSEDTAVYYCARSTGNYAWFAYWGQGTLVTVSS VL: DIVMTQSPDSLAVSLGERATINCKTSQDVSPSLAWYQQKPGQPPKLLIYSASKRYTGVPDRFSGSGSGTDFTLTISSLQAEDVAVYYCQQHYSIPLQFGGGTKVEIK",
    "uom": "M⁻¹ s⁻¹",
    "kon": 67000
  },
  {
    "binder": "anti-GPNMB antibody GPN-86 (antibody, V domains shown) VH: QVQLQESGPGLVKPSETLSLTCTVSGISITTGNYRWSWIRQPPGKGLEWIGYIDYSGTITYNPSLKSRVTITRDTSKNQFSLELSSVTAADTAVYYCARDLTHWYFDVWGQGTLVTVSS VL: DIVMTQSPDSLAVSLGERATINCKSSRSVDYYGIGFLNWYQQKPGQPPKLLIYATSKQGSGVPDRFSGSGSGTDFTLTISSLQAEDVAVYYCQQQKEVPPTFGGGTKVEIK",
    "uom": "M⁻¹ s⁻¹",
    "kon": 190000
  }
]

Query: Answer with reported kon of anti-GPNMB antibody GPN-84 (antibody, V domains shown) VH: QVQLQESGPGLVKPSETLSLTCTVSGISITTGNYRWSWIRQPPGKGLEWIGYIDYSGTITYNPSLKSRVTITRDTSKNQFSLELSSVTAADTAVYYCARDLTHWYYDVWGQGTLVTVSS VL: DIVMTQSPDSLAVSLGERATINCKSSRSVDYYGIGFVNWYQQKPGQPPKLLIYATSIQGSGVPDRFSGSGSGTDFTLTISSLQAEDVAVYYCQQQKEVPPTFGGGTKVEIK
Reply: 180000
